List of pIC50 tested on Acetylcholinesterase (Electrophorus electricus).
Sequence (O42275 whole entry): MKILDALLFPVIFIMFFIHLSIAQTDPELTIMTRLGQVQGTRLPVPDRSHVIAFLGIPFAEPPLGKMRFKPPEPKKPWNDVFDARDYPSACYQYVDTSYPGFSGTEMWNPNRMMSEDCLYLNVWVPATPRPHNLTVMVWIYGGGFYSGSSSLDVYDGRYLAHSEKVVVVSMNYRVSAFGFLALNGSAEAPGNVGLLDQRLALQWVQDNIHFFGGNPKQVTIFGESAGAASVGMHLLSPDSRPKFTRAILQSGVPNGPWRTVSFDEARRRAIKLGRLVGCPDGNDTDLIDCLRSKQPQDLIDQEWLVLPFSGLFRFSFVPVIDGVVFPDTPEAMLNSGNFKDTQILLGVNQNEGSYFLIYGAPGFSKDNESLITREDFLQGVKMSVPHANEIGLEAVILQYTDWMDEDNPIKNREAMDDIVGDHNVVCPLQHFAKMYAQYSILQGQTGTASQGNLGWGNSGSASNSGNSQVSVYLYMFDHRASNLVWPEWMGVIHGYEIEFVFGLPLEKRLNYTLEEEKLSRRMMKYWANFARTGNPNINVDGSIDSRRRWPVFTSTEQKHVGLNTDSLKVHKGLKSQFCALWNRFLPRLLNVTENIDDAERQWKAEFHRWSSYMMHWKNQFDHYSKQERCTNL
Value format note: pIC50 is -log10 of concentration (mol/L); just state the number.

| CHEMICAL_STRUCTURE | MEASUREMENT_TARGET | pIC50 |
| --- | --- | --- |
| C=Cc1cccc2c1N(CCCC)Cc1cc3c(cc1-2)OCO3 | Acetylcholinesterase (Electrophorus electricus) | 5.58 |
| C=Cc1cccc2c1N(C)Cc1cc3c(cc1-2)OCO3 | Acetylcholinesterase (Electrophorus electricus) | 5.54 |
| CCCN1Cc2cc3c(cc2-c2cccc(CC)c21)OCO3 | Acetylcholinesterase (Electrophorus electricus) | 5.00 |
| CCCCN1Cc2cc3c(cc2-c2cccc(CC)c21)OCO3 | Acetylcholinesterase (Electrophorus electricus) | 5.26 |

Then this compound:
# input compound: CCc1cccc2c1N(C)Cc1cc3c(cc1-2)OCO3 ; wanted: its pIC50
5.52
